Recorded values, source PubChem BioAssay.

I'd be grateful if you could share measured viability for these entries.
assay-remarks: HUVEC growth inhibition – cell-based, human, primary screen (AID 575);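 also: 100% = median of untreated cell wells with 0.1% DMSO on each plate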
condition-info: HUVEC proliferation, CellTiter-Glo luminescence, 72 h; at 10 µM; stronger effect = lower value
Answers are plain numbers, in %.

Below is a list of compounds. For each, state its recorded viability.
1. Cc1nnc(NCCc2ccccc2)n(N)c1=O
2. Cc1ccc(C)c(S(=O)(=O)NCc2cccnc2)c1
3. O=c1[nH]c(CN2CCN(Cc3ccccc3)CC2)nc2sc3c(c12)CCC3

Response line:
120
108
98.9

Below is a list of compounds. For each, state its recorded viability.
1. O=C(Nc1ccc(CN2CCCCC2)cc1)c1ccc2c(c1)OCO2
2. CC(=O)NS(=O)(=O)c1ccc(NC(=O)c2ccccc2F)cc1
3. COc1cc2c(cc1NC(=O)CN1CCN(S(=O)(=O)c3ccc(F)cc3)CC1)oc1ccccc12

Response line:
98.8
87.3
66.4

Below is a list of compounds. For each, state its recorded viability.
1. CCOC(=O)c1nnc(-c2ccccc2)o1
2. Cc1cc(C)n(CCc2nc(-c3cccs3)cs2)n1

Response line:
1: 86.1; 2: 106

Below is a list of compounds. For each, state its recorded viability.
1. CC(C)CCNc1cc(=O)n(C)c(=O)n1C
2. CC(C)COc1ccc(C2NC(=O)NC2=O)cc1 (configuration not stated)
3. CCOC(=O)CSc1nnc(-c2cccnc2)n1Cc1ccccc1
4. COC(=O)c1ccccc1NC(=O)C1CC(=O)N(c2ccccc2)C1 (configuration not stated)

Response line:
1: 91; 2: 96.3; 3: 106; 4: 114

----------
I'd be grateful if you could share measured differential viability (reversal) for these entries.
assay-remarks: reversal of MRP1-mediated doxorubicin resistance, pilot screen, H69AR cells, doxorubicin co-treatment (AID 601)
condition-info: H69AR cells + 2 uM doxorubicin, CellTiter-Glo, 72 h; at 10 µM; stronger effect = higher value
Answers are plain numbers, in %.

Recorded differential viability (reversal), per entry:
{"columns": ["compound", "differential viability (reversal) (%)"],
 "data": [
  ["CCSc1nnc2c(n1)OC=Nc1ccc(Br)cc1-2", 12.9],
  ["O=C(CN1C(=O)C2C3C=CC(C3)C2C1=O)NCc1ccc2c(c1)OCO2 (stereo not drawn)", 8.13],
  ["COC(=O)C(NC(C)=O)(Nc1ccccn1)C(F)(F)F (stereo not drawn)", -5.41]
]}

Below is a list of compounds. For each, state its recorded differential viability (reversal).
1. Nc1nc(CN2CCN(Cc3ccc4c(c3)OCO4)CC2)nc(Nc2ccccc2)n1
2. C=C(C)c1cccc(C(C)(C)NC(=O)Nc2ncccn2)c1
3. CC1(C)CC(=O)c2cc(OCC(=O)NCCCN3CCN(c4ccccc4F)CC3)ccc2O1
4. Nc1nc(-c2ccccc2Br)cs1
5. COc1cccc(CN(C)CC(=O)NC(=O)NCc2ccco2)c1
6. CCOC(=O)N1CCN(c2ncnc3c2[nH]c2ccc(OC)cc23)CC1

Response line:
1. 13
2. -9
3. -5.98
4. 9.75
5. 5.36
6. 3.37

----------
I'd be grateful if you could share measured viability for these entries.
assay-remarks: growth inhibitors of H69AR lung tumor, primary screen, human, duplicate replicates (AID 580);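 also: 100% = mean luminescence of untreated wells and 0% = no signal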
condition-info: H69AR lung tumor cells viability, ATP luminescence, 72 h; at 10 µM; stronger effect = lower value
Numbers only, in %.

Recorded viability, per entry:
{"columns": ["compound", "viability / %"],
 "data": [
  ["CCOc1ccc(NC(=O)C2CC(=O)N(C(C)C)C2)cc1 (stereo unspecified)", 99.7],
  ["CCOc1ccc(-n2c(C)nc3c(cnn3-c3ccc(Cl)cc3)c2=O)cc1", 80.7],
  ["Cc1cc(C)n(CCCNC(=O)c2ccc3c(c2)NC(=O)CS3)n1", 89.7]
]}

Below is a list of compounds. For each, state its recorded viability.
1. COc1ccc(S(=O)(=O)N2CCN(CC(=O)Nc3ccc(F)c(F)c3)CC2)cc1
2. CC(C)OC(=O)CSc1nnc(Cc2ccccc2)n1Cc1ccco1
3. c1cnc2c(SCc3ccc(-c4nnco4)cc3)cccc2c1
4. Cc1cccc2sc(NC(=O)CN(C)S(=O)(=O)c3cccs3)nc12
5. O=c1c2ccccc2cnn1-c1nc2ccccc2s1
6. COCCCNC(=O)CCc1nc(-c2ccccc2Cl)no1
7. O=C(C(c1ccccc1)c1ccccc1)N1CCN(Cc2ccccn2)CC1
8. O=C(Cn1ccc2ccccc2c1=O)NCCC(=O)NC1CCN(Cc2ccccc2)CC1

Response line:
91.1
92.4
97.2
92
81.6
93.3
93.4
100

----------
I'd be grateful if you could share measured inhibition for these entries.
assay-remarks: 384-well plate pilot, post-Golgi transport modulator project, inhibition of yeast transport mutant growth (AID 636)
condition-info: absorbance 615 nm, about 18 h, stronger effect = higher value
Activity calls are given as the source filed them. No stated cut-off is given here; in the data, active means inhibition above about 31%; inactive means the rest.

{"columns": ["compound", "measurement"],
 "data": [
  ["C=CCNC(=O)CN(c1cccc(Br)c1)S(C)(=O)=O", "-5.6% (inactive)"],
  ["COc1ccccc1Nc1nc(N)nc(CN2CCN(c3ccccc3F)CC2)n1", "1.71% (inactive)"],
  ["c1ccc(CCn2nnnc2CN2CCN(C3CCCC3)CC2)cc1", "2.03% (inactive)"]
]}

Below is a list of compounds. For each, state its recorded inhibition.
1. COC(=O)C(NC(C)=O)(Nc1ccccn1)C(F)(F)F (stereo unspecified)
2. CCc1nnc(NC(=O)C2CC(=O)N(Cc3ccco3)C2)s1 (stereo unspecified)

Response line:
1. -1.97% (inactive)
2. -2.93% (inactive)

// inhibition lookup, compound = CSc1ccccc1N=CC1=C(O)CC(C)(C)CC1=O , result: -4.94% (inactive)

----------
assay-remarks: reversal of MRP1-mediated doxorubicin resistance, pilot screen, H69AR cells, doxorubicin co-treatment (AID 601)
condition-info: H69AR cells + 2 uM doxorubicin, CellTiter-Glo, 72 h; measured here: viability with 2 uM doxorubicin; at 10 µM; stronger effect = lower value
I'd be grateful if you could share measured viability for these entries.
Answers are plain numbers, in %.

Below is a list of molecules. For each, state its recorded viability.
1. Cc1c(C(=O)O)oc2ccc(S(=O)(=O)NCCC3=CCCCC3)cc12
2. Cc1ccc(NC(=O)CSc2nnc(CNC(=O)c3c(F)cccc3Cl)o2)cc1
3. Cc1oc(C(=O)O)cc1CSCc1cc(C(=O)O)c(C)o1
4. COc1ccc(C(CC(=O)O)NC(=O)c2ccccc2)cc1OC (stereo unspecified)
5. COCCOC(=O)C1=C(C)Nc2ncnn2C1c1ccc(F)cc1 (stereo unspecified)

Response line:
1. 94.3
2. 96.5
3. 102
4. 90.1
5. 82

Below is a list of molecules. For each, state its recorded viability.
1. COc1cccc(C(=O)Nc2ncc3c(n2)CC(C)CC3=O)c1 (stereo unspecified)
2. O=C(Cn1cnc2ccccc2c1=O)NCCC(=O)N1CCN(Cc2ccccc2)CC1
3. COc1cc(-c2c(C#N)c(N)nc3c2CCCC3)cc(OC)c1OC
4. O=C(OCc1nnc(-c2ccccc2)o1)C1=COCCO1
5. N#CC1=C(N)N(c2ccccc2)C2=C(C(=O)CCC2)C1c1cccs1 (stereo unspecified)
6. O=C(O)C1CCCN1S(=O)(=O)c1ccc2ccccc2c1 (stereo unspecified)

Response line:
[100, 85.2, 86.1, 93, 23.5, 108]

Below is a list of molecules. For each, state its recorded viability.
1. Cn1ccnc1SCCC#N
2. CCOC(=O)CSc1cn2c(n1)CCC2
3. Cc1ccc(S(=O)(=O)N2CCC(C(=O)NCCN3CCCCCC3)CC2)cc1
4. Cc1noc(C)c1S(=O)(=O)Nc1c(C)n(C)n(-c2ccccc2)c1=O
5. CCN(c1cccc(C)c1)S(=O)(=O)c1ccc2[nH]c(=O)c(=O)[nH]c2c1
6. CCOC(=O)N1CCN(S(=O)(=O)c2ccc(OCC)c(C)c2)CC1
7. O=C(C1CCC1)N1CCc2cc(S(=O)(=O)N3CCc4ccccc4C3)ccc21
8. O=C(CSc1nnc2scc(-c3ccccc3)n12)N1CCN(Cc2ccccc2)CC1

Response line:
1: 97.3; 2: 94.7; 3: 84.6; 4: 90.3; 5: 90.8; 6: 85.5; 7: 94; 8: 70

Below is a list of molecules. For each, state its recorded viability.
1. CCOC(=O)c1cc2cc(F)ccc2nc1C
2. COC(=O)c1sc(S(=O)(=O)Nc2ccc3cn[nH]c3c2)c(C(=O)OC)c1C
3. Cc1ccc(SCCNS(=O)(=O)c2ccc(F)cc2)cc1
4. CC(Sc1nc(-c2ccccc2)cc(C(F)(F)F)n1)C(=O)N1CCC(C(N)=O)CC1 (stereo unspecified)
5. COC(=O)c1cnc2c(C(F)(F)F)cccc2c1OC
6. Cc1cc(C)nc(SCC(=O)Nc2ncc3c(n2)CCCC3=O)n1
7. CN(Cc1ccccc1)Cc1nc2c(c(=O)n(C)c(=O)n2C)n1Cc1ccc(Cl)cc1
8. CCc1nnc(NC(=O)C2CCCN2S(=O)(=O)c2ccc(C)cc2)s1 (stereo unspecified)

Response line:
1: 87.1; 2: 90.6; 3: 91.1; 4: 92.3; 5: 86.8; 6: 99.3; 7: 84.2; 8: 112

Below is a list of molecules. For each, state its recorded viability.
1. Cc1c(C(=O)O)oc2ccc(S(=O)(=O)NCc3ccccc3)cc12
2. NCCN1CCN(CCN)CC1
3. Fc1ccc(-c2csc3nnc(SCc4cccnc4)n23)cc1

Response line:
[105, 81.4, 84.9]

Below is a list of molecules. For each, state its recorded viability.
1. COc1ccc(C(=O)N2CCN(S(=O)(=O)c3cc(Cl)ccc3OC)CC2)cc1
2. CCn1cc(C(=O)N2CCCC2)c(=O)c2cc(S(=O)(=O)N3CCOCC3)ccc21
3. COC(=O)c1cccc(S(=O)(=O)N2CCN(c3nc4ccccc4s3)CC2)c1
4. CC1(C)CNC(=O)CC(C)(C)N1O
5. CC1CCN(CCCNC(=O)c2cn(C)c3ccc(S(=O)(=O)N4CCCC4)cc3c2=O)CC1
6. O=C(C1CC1)N(Cc1ccco1)c1nc(-c2ccccc2)cs1
7. CN(Cc1cccs1)C(=O)CCc1ccc(S(=O)(=O)N2CCOCC2)cc1
8. COc1ccc(-c2nnc3sc(-c4c(OC)cccc4OC)nn23)cc1

Response line:
1: 102; 2: 98.3; 3: 72.3; 4: 92.6; 5: 88; 6: 84.7; 7: 97.6; 8: 83.2

Below is a list of molecules. For each, state its recorded viability.
1. COc1cc(C2C(C#N)=C(N)OC3=C2C(=O)CCC3)ccc1OC(=O)N1CCOCC1 (stereo unspecified)
2. Cc1ccc2c(c1)CCCN2C(=O)Nc1ccc2c(c1)OCO2
3. COc1ccc2ccccc2c1CN1CCN(C)CC1
4. COCCOC(=O)c1c(C)oc2ccc(NS(=O)(=O)c3ccc(F)cc3)cc12
5. CCOc1ccccc1C(=O)NCCC(=O)O

Response line:
1. 83.6
2. 89.2
3. 96.6
4. 95.2
5. 95.1

Below is a list of molecules. For each, state its recorded viability.
1. COc1cccc(N2CCN(Cc3nc(N)nc(Nc4ccccc4OC)n3)CC2)c1
2. N#Cc1ccc(COC(=O)Cn2nnc(-c3ccccc3)n2)cc1
3. CC(C)CNS(=O)(=O)c1ccc(CCC(=O)N2CCOCC2)cc1

Response line:
84.4
64.1
94.6
